The reported measurements were obtained from patent US8686024B2.

Could you please report measured pIC50 for the items listed next?
assay-target: butyrylcholine esterase (BuChE) (Mus musculus)
Construct: brain homogenate and serum of mouse were used as choline esterase enzyme sources; from tissue; host or cells: mouse serum
Sequence (Q03311 30-603): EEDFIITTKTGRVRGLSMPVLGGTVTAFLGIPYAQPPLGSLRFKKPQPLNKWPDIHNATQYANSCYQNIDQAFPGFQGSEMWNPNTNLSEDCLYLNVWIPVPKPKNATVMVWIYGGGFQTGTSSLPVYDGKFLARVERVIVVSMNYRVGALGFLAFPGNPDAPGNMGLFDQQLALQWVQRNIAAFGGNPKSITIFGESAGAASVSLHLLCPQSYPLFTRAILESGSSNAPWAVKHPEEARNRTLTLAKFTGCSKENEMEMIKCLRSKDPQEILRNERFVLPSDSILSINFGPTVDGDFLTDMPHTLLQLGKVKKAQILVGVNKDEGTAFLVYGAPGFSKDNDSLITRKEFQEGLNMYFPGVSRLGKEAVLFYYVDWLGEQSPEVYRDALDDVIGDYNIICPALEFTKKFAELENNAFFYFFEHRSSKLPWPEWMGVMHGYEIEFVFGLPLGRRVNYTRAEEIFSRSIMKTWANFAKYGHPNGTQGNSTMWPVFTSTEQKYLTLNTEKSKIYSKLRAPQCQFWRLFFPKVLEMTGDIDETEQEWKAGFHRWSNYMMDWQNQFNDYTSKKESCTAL
test-description: In vitro assay for choline esterase inhibition (Ellman method), butyrylthiocholine substrate, mouse serum
Type: biochemical
experimental-conditions: mouse serum, butyrylthiocholine, absorbance at 415 nm; read-out: BuChE inhibitory activity IC50
Numbers only, as −log10 of the molar value.

Data point: `CC(C)c1ccc(NC(=O)Oc2ccc3c(c2)C(C)(C)CN3Cc2ccccc2)cc1` ; pIC50 = 6.55

Data point: `CCCCCCNC(=O)Oc1ccc2c(c1)CCN2Cc1ccccn1` ; pIC50 = 7.96

Data point: `O=C(NCCc1ccncc1)Oc1ccc2c(c1)CCN2Cc1ccccc1` ; pIC50 = 7.23

Data point: `O=C(NCC1CCCCC1)Oc1ccc2c(c1)CCN2Cc1ccccn1` ; pIC50 = 8.70

Data point: `COc1cccc(CNC(=O)Oc2ccc3c(c2)CCN3Cc2ccccc2)c1` ; pIC50 = 8.14

Hey, can you go through the list below and give me pIC50 for every item?
1. O=C(NCCc1ccc(Cl)cc1)Oc1ccc2c(c1)CCN2Cc1ccccc1
2. O=C(NCCc1ccccc1)Oc1ccc2c(c1)CCN2Cc1ccccc1 [Example 16, 1-benzylindolin-5-yl phenethylcarbamate]
3. CCCNC(=O)Oc1ccc2c(c1)CCN2Cc1ccccc1 [Example 114, 1-benzylindolin-5-yl n-propylcarbamate]
4. O=C(NC1CC1)Oc1ccc2c(c1)CCN2Cc1ccccc1
5. O=C(NCC1CCOC1)Oc1ccc2c(c1)CCN2Cc1ccccc1 (centres unmarked)

1. 7.96
2. 7.38
3. 6.74
4. 6.72
5. 7.82

Hey, can you go through the list below and give me pIC50 for every item?
1. O=C(Nc1ccc2c(c1)OCO2)Oc1ccc2c(c1)CCN2Cc1ccccc1
2. CSCCCNC(=O)Oc1ccc2c(c1)CCN2Cc1ccccc1

1: 6.54; 2: 7.92

Hey, can you go through the list below and give me pIC50 for every item?
1. O=C(NCC1CCCO1)Oc1ccc2c(c1)CCN2Cc1ccccc1 (centres unmarked)
2. COc1ccc(CNC(=O)Oc2ccc3c(c2)CCN3Cc2ccccc2)cc1
3. O=C(NCc1cccs1)Oc1ccc2c(c1)CCN2Cc1ccccc1
4. COc1cc(CN2CCc3cc(OC(=O)Nc4ccc(C(C)C)cc4)ccc32)ccc1O
5. O=C(NCc1ccccc1)Oc1ccc2c(c1)CCN2Cc1ccccn1
6. CC(C)c1ccc(NC(=O)Oc2ccc3c(c2)C(C)CN3Cc2ccccc2)cc1 (centres unmarked)

[7.80, 7.77, 7.92, 5.89, 8.00, 6.74]

Hey, can you go through the list below and give me pIC50 for every item?
1. O=C(NCc1ccccc1)Oc1ccc2c(c1)CCN2 [Example 127, indolin-5-yl benzylcarbamate]
2. Cc1ccc(CNC(=O)Oc2ccc3c(c2)CCN3Cc2ccccc2)cc1

6.21
7.68
